All values here come from ChEMBL document CHEMBL3351667.

System: Mus musculus
assay text: Apparent volume of distribution in BALB/c mouse at 10 mg/kg, po after 24 hrs by LC/MS/MS method
Format: ADME, organism-based
Design: dose 10 mg/kg, route oral
particulars: in vivo
assay endpoint: Vz (L/kg)
Numbers only, in L/kg.

Consider the reported Vz for these compounds:
| smiles code | Vz, L/kg |
| --- | --- |
| CN(C)C/C=C/C(=O)Nc1cc2c(Nc3ccc(F)c(Cl)c3)ncnc2cc1O[C@H]1CCOC1 | 36.2 |
| COc1cc2ncnc(Nc3ccc(F)c(Cl)c3)c2cc1NC(=O)/C(F)=C/CN(C)C | 14 |
| CCOc1cc2ncnc(Nc3ccc(OCc4ccccn4)c(Cl)c3)c2cc1NC(=O)/C(F)=C/CN(C)C | 3.94 |

Now consider the entry below.
Lookup: Any idea what Vz was measured for CN(C)C/C=C(\F)C(=O)Nc1cc2c(Nc3ccc(F)c(Cl)c3)ncnc2cc1O[C@H]1CCOC1 ?
Found: 9.69

----------
Cytochrome P450 2D6 (Homo sapiens): reported IC50 for various molecules.
Sequence (P10635 whole entry): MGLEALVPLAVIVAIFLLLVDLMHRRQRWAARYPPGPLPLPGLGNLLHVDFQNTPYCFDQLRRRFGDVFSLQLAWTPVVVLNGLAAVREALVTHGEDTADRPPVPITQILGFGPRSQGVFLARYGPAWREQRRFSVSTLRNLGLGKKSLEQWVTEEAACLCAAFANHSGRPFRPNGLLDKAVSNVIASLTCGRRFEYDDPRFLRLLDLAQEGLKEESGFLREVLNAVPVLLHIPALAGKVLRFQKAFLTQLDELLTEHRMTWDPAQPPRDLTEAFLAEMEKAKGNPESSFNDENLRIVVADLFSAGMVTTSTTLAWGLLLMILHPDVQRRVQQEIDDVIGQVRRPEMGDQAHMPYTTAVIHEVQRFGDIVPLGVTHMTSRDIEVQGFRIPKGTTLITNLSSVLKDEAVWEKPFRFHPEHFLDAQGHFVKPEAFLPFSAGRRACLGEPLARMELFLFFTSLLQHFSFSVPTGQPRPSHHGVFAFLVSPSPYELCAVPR

Consider the following illustrative entries.
| smiles code | measurement |
| --- | --- |
| COc1cc2ncnc(Nc3ccc(F)c(Cl)c3)c2cc1NC(=O)/C(F)=C/CN(C)C | > 10 µM |
| COc1cc2ncnc(Nc3ccc(F)c(Cl)c3)c2cc1NC(=O)/C(F)=C/CN1CCCCC1 | > 10 µM |

The record that follows has no IC50 shown yet.
Lookup: What does the record list as IC50 for CN(C)C/C=C(\F)C(=O)Nc1cc2c(Nc3ccc(F)c(Cl)c3)ncnc2cc1O[C@H]1CCOC1 ?
Found: > 10 µM

----------
Exercise: state measured bioavailability for each of the molecules provided.
assay text: Oral bioavailability in BALB/c mouse at 5 mg/kg after 24 hrs by LC/MS/MS method
Assay type: ADME, organism-based
particulars: in vivo
Give bare numbers, in %.

| smiles code | measurement unit | bioavailability |
| --- | --- | --- |
| COc1cc2ncnc(Nc3ccc(F)c(Cl)c3)c2cc1NC(=O)/C(F)=C\CN1CCCCC1 | % | 16.5 |

Continue with the molecule presented below.
Lookup: # bioavailability lookup, item COc1cc2ncnc(Nc3ccc(F)c(Cl)c3)c2cc1NC(=O)/C(F)=C/CN1CCCCC1
Found: 105

----------
test system: Platelet-derived growth factor receptor alpha (Homo sapiens, UniProt P16234)
Sequence (P16234 whole entry): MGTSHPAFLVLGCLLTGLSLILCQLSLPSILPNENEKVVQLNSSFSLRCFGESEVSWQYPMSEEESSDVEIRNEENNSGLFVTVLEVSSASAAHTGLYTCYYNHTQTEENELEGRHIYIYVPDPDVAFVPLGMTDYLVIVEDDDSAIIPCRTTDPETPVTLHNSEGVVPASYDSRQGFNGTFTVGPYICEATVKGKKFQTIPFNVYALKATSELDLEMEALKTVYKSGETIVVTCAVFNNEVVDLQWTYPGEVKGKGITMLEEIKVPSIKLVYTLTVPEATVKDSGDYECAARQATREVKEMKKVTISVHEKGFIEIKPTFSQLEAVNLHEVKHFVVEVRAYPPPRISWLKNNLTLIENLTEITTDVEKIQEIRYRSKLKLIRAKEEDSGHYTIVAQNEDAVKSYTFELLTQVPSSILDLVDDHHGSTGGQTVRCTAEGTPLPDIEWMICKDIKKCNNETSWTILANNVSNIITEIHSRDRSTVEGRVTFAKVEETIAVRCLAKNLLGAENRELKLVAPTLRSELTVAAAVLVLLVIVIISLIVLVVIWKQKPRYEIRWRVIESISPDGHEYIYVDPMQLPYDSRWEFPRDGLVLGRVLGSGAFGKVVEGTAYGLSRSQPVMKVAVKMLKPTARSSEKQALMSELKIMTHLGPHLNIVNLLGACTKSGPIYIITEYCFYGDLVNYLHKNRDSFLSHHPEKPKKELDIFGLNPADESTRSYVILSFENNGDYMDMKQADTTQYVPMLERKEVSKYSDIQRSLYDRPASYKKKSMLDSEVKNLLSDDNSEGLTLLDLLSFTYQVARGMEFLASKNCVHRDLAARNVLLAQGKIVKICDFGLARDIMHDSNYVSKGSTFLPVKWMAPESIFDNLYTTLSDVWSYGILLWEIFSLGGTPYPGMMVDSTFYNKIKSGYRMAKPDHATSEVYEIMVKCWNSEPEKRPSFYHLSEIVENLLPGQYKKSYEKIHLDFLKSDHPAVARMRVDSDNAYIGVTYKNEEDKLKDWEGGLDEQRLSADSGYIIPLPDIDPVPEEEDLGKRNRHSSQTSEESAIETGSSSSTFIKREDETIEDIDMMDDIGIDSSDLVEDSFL
assay endpoint: pIC50
Numbers only, as −log10 of the molar value.

Lookup: Quick one: pIC50 of COc1cc2ncnc(Nc3ccc(F)c(Cl)c3)c2cc1NC(=O)/C(F)=C/CN(C)C ?
Found: 5.44

----------
test system: Fibroblast growth factor receptor 2 (Homo sapiens)
Sequence (P21802 whole entry): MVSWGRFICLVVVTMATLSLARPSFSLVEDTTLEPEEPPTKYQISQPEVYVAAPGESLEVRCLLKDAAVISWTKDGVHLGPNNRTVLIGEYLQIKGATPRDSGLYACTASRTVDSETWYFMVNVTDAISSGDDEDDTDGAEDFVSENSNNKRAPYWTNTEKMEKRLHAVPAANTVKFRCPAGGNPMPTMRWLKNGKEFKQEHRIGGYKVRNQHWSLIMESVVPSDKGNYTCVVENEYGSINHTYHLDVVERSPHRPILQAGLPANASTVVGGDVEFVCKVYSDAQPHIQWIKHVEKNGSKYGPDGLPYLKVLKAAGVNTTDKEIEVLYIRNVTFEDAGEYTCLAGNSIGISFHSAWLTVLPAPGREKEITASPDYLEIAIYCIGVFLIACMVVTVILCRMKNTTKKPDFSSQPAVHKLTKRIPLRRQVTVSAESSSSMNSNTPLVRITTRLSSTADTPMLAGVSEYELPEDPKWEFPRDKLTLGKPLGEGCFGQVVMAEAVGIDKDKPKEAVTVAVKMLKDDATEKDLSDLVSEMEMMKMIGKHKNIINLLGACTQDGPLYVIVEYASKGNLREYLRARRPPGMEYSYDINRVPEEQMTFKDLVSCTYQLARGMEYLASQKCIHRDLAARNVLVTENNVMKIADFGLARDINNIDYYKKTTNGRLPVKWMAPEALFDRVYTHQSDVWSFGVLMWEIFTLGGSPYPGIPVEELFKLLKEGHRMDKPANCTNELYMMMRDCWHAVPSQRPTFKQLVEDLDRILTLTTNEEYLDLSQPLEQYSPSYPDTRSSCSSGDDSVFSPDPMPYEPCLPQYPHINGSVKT
assay endpoint: IC50

Lookup: Data request, read-out IC50, for COc1cc2ncnc(Nc3ccc(F)c(Cl)c3)c2cc1NC(=O)/C(F)=C/CN(C)C
Found: > 10 µM

----------
test system: Receptor tyrosine-protein kinase erbB-2 (Homo sapiens)
Sequence (P04626 whole entry): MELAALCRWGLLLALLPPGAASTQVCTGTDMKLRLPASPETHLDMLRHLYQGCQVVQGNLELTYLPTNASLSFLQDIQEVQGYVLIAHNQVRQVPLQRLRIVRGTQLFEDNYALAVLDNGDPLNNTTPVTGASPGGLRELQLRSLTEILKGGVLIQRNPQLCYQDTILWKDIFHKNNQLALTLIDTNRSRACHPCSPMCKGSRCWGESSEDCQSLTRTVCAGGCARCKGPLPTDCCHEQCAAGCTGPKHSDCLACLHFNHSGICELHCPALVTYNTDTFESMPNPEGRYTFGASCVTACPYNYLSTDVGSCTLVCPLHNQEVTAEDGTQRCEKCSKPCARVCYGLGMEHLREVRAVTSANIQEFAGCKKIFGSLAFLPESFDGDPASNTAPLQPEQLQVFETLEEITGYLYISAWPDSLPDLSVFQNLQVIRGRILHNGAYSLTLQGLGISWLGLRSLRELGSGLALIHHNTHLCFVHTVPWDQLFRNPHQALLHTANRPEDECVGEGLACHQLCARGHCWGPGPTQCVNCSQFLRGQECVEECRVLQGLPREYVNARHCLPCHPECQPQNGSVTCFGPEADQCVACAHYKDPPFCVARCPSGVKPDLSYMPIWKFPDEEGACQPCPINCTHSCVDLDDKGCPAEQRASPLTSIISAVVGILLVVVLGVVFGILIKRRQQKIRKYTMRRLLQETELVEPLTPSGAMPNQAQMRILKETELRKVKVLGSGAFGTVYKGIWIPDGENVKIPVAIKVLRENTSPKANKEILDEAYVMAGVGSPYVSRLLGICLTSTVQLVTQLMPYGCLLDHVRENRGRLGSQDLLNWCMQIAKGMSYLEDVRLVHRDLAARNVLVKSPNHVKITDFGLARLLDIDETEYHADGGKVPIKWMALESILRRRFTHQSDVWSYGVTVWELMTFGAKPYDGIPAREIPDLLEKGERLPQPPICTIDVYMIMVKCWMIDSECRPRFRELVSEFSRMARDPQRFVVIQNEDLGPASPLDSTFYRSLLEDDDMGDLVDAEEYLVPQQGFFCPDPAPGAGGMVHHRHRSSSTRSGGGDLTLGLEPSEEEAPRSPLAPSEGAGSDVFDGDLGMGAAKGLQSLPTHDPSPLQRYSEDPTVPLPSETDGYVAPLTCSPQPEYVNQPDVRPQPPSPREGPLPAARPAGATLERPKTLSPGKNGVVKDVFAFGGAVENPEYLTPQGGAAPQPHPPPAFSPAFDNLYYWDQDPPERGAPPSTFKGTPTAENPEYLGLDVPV
assay endpoint: pIC50
Give bare numbers, as −log10 of the molar value.

The examples below pair each entry with its known result.
| smiles code | test system | pIC50 |
| --- | --- | --- |
| CN(C)C/C=C(\F)C(=O)Nc1cc2c(Nc3ccc(F)c(Cl)c3)ncnc2cc1O[C@H]1CCOC1 | Receptor tyrosine-protein kinase erbB-2 (Homo sapiens) | 6.83 |
| CN(C)C/C=C(/F)C(=O)Nc1cc2c(Nc3ccc(F)c(Cl)c3)ncnc2cc1O[C@H]1CCOC1 | Receptor tyrosine-protein kinase erbB-2 (Homo sapiens) | 7.01 |

# map each compound to its pIC50
1. CCOc1cc2ncnc(Nc3ccc(OCc4ccccn4)c(Cl)c3)c2cc1NC(=O)/C(F)=C/CN(C)C
2. O=C(Nc1cc2c(Nc3ccc(F)c(Cl)c3)ncnc2cc1O[C@H]1CCOC1)/C(F)=C/CN1CCOCC1

Found:
8.86
5.80
